Value kind: Log2 fold changes in gene expression: CYP2C19
Answer with the value's number alone.

Query: Recorded Log2 fold changes in gene expression: CYP2C19 for CC(C)N(CCC(C(N)=O)(c1ccccc1)c1ccccn1)C(C)C (stereo not drawn) [MT-189, Disopyramide] with primary human hepatocytes, please?
Result: 0.18

Query: Recorded Log2 fold changes in gene expression: CYP2C19 for CCN1CCCC1CNC(=O)c1cc(S(N)(=O)=O)ccc1OC (stereo not drawn) [MT-277, Sulpiride] with primary human hepatocytes, please?
Result: 0.04

Query: Recorded Log2 fold changes in gene expression: CYP2C19 for CCc1oc2ccccc2c1C(=O)c1cc(Br)c(O)c(Br)c1 [MT-220, Benzbromarone] with primary human hepatocytes, please?
Result: 0.57

Query: Recorded Log2 fold changes in gene expression: CYP2C19 for COc1ccc(Cc2nccc3cc(OC)c(OC)cc23)cc1OC [MT-913, Papaverine] with primary human hepatocytes, please?
Result: 0.09

Query: Recorded Log2 fold changes in gene expression: CYP2C19 for CCc1nn(CCCN2CCN(c3cccc(Cl)c3)CC2)c(=O)n1CCOc1ccccc1 [MT-505, Nefazodone] with primary human hepatocytes, please?
Result: −0.03

Query: Recorded Log2 fold changes in gene expression: CYP2C19 for C#C[C@]1(O)CC[C@H]2[C@@H]3CCC4=Cc5oncc5C[C@]4(C)[C@H]3CC[C@@]21C [MT-487, Danazol] with primary human hepatocytes, please?
Result: −0.03

Query: Recorded Log2 fold changes in gene expression: CYP2C19 for C[C@H](CS)C(=O)N1CCC[C@H]1C(=O)O [MT-835, Captopril] with primary human hepatocytes, please?
Result: 0.07

Query: Recorded Log2 fold changes in gene expression: CYP2C19 for CC(C)(S)[C@@H](N)C(=O)O [MT-741, Penicillamine(D-)] with primary human hepatocytes, please?
Result: 0.04

Query: Recorded Log2 fold changes in gene expression: CYP2C19 for CN(C)CCC=C1c2ccccc2COc2ccccc21 [MT-723, Adapin (doxepin)] with primary human hepatocytes, please?
Result: 0.18
